Study system: T1, hECD: full-length extracellular region of human MuSK (E22 to T495) with C-terminal Avi- and His6-tags (human, UniProt O15146 22-495, biotinylated in vitro using the BirA enzyme)
T1 construct: also called human ECD; not shown: Avi- and His6-tags
T1 sequence: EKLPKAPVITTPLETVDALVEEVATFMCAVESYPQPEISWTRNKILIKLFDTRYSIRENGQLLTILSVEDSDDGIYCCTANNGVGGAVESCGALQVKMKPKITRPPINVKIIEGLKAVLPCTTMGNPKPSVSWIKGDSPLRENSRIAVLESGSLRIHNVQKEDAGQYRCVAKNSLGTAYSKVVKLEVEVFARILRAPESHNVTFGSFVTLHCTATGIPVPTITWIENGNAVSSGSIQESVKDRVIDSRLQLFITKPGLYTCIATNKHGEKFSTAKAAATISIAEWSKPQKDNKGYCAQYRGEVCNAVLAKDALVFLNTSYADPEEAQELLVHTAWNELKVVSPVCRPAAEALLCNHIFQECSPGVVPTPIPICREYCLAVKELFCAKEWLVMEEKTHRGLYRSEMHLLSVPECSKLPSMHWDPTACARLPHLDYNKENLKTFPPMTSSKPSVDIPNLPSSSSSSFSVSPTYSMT
Test: bead-binding assay, Fab format: biotinylated antigen on streptavidin beads, flow cytometry, 1:1 fit; average ± s.d., n=3
Quantity: Kd (nM)
Numeric answer only, unit nM assumed.

Recorded results for 2 binders are shown here.
- Binder: "X6 Fab (Fab, V domains shown, also called Fab Clone X6) VH: EVQLVESGGGLVQPGGSLRLSCAASGFTFSSSSIHWVRQAPGKGLEWVASISSYSGYTYYADSVKGRFTISADTSKNTAYLQMNSLRAEDTAVYYCARTYGSYYVSSYTGMDYWGQGTLVTVSS VL: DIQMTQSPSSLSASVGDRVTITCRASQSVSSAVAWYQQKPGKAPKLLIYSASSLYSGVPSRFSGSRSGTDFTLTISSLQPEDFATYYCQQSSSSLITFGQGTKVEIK"
  Kd [nM]: 1.47
- Binder: "X8 Fab (Fab, V domains shown, also called Fab Clone X8) VH: EVQLVESGGGLVQPGGSLRLSCAASGFTVSSSSIHWVRQAPGKGLEWVASISSSSGSTSYADSVKGRFTISADTSKNTAYLQMNSLRAEDTAVYYCARSWSYHPWYYHVGWYTGLDYWGQGTLVTVSS VL: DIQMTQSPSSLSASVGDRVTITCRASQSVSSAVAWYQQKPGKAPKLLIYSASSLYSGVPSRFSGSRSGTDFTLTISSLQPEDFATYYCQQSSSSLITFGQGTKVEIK"
  Kd [nM]: 1.69

[ask] Can you look up the measured Kd of X2 Fab (Fab, V domains shown, Fab format) VH: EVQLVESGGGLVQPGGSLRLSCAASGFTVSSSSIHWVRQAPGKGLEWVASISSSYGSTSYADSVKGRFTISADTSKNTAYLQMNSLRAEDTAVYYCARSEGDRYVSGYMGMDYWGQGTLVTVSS VL: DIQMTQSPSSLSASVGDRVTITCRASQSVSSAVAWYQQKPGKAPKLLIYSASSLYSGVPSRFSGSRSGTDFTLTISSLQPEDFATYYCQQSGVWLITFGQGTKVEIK for me?
[reply] 0.86
